test system: arNOX; assay: arNOX assay: ferricytochrome c reduction (superoxide production) in sera; format: biochemical, human; conditions: sera of aged individuals
measurement type: serum activity (cytochrome c reduction) in response to added reagent

> print(dat)
                                   compound  target.desc  reported.result
1  Cc1cc(-c2ccccc2)c2ccc3c(-c4ccccc4)cc(C)nc3c2n1 [bathocuproene]        arNOX       unaffected
2  Cc1cc(-c2ccc(S(=O)(=O)O)cc2)c2ccc3c(-c4ccc(S(=O)(=O)O)cc4)cc(C)nc3c2n1 [bathocuproenedisulforiate]        arNOX       unaffected
